Measurement Notes: In vivo pharmacokinetic evaluation in SD rats, gavage
Setup Conditions: rat, plasma, po, male SD rats, 5 mg/kg
Description: Three male SD rats were administered with compounds in a single dose of 5 mg/kg or 3 mg/kg by gavage, and blood samples were collected before administration and at 0.25, 0.5, 1, 2, 4, 6, 8, and 24 h after administration. Preparation of solutions of compounds to be dosed at 5 mg/kg: 5.5 mg compound (converted based on purity) was accurately weighed and added to 0.55 mL of DMSO. Clear solutions were obtained after stirring and sonication. […] The plasma concentration was measured using LC-MS/MS method.
Readout Label: half-life (h)

CNC(=O)c1ccc(Nc2ncc(C(F)(F)F)c(NCc3nccnc3N(C)S(C)(=O)=O)n2)cc1 [Defactinib, reference compound]; 1.2
C=CC(=O)N1CCC[C@@H](c2cccc(NCc3ccc(Nc4ncc(C(F)(F)F)c(Nc5ccccc5C(=O)NC)n4)cc3)c2)C1; 0.96
